target: T1, rat amylin receptor (rat calcitonin receptor + rat RAMP 3) (rat, UniProt P32214 25-516; Q9JJ73 23-147)
T1 construct: whole, on cells; Receptor complex in cell membranes prepared from transiently transfected BHK tk'ts 13 cells (Assay VI); also called rAmylin-R; rat amylin 3(a) receptor
T1 sequence (looked up) 1: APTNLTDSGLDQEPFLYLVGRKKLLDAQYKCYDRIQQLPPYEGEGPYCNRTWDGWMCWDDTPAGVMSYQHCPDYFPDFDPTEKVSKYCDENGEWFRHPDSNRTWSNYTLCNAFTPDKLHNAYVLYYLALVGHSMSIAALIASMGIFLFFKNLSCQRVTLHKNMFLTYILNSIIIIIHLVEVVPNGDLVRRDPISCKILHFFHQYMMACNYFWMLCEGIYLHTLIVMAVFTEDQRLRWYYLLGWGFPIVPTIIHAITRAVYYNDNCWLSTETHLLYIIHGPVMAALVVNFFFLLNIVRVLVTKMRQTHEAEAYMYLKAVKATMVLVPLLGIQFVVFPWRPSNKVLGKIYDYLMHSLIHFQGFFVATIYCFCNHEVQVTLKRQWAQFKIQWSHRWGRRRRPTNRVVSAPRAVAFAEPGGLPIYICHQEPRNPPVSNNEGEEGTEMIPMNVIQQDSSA
T1 sequence (looked up) 2: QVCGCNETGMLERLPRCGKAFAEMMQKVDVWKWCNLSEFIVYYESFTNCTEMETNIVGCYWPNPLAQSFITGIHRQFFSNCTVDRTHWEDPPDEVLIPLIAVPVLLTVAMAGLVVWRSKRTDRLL
assayExplanation: SPA competition binding, displacement of 125I-rat amylin from membranes of BHK tk'ts 13 cells with rat calcitonin receptor + rat RAMP 3 (Assay VI)
Description: The binding assay was performed using scintillation proximity assay (SPA) beads (RPNQ0001) from PerkinElmer and cell membranes from the Amylin 3(a)/CRE-luc cells (as described in Assay (II)) were used. […] The resulting pellet was resuspended in buffer 2 and protein concentration was measured (BCA protein Assay, Pierce). […] Samples were analyzed on TopCounter™ (Packard). The IC₅₀ was calculated using (one site binding competition analysis) GraphPad Prism5 as a measure of receptor affinity. […]
Numbered stars: 1 amine (or outer) side, 2 acyl side, 3 side chain; on linkers, the order of the positions; unused ones are H or OH. Bridge positions count the residues as written; N and C are the ends. Side chains are listed from the residue outwards. Ends that are not written are not given here. * marks the point of attachment. C20 diacid = O=C(O)CCCCCCCCCCCCCCCCCCC(=O)*; γGlu = O=C(O)[C@H](CCC(=O)[*:2])N[*:1]
Recorded IC50 by entry

[
  {
    "binder": "K([γGlu-γGlu-C20 diacid])CNTATCATQRLADFLRHSSPNFGAIPSSTNVGPRTY-NH2 (disulfide 2-7, also called compound 130)",
    "IC50 [pM]": 930
  },
  {
    "binder": "K([γGlu-γGlu-C20 diacid])CNTATCATQRLAEFLRHSSNNPGAILSSTNVGPETY-NH2 (disulfide 2-7)",
    "IC50 [pM]": 659
  }
]
